Hello, the source for this data is patent US20240018237A1, in case you need it.

Catalogue of EC50 values
- TESTED_SYSTEM: T1, human ROR1 (full-length, on the cell surface) (human, UniProt Q01973 30-937)
- T1 construct: whole, on cells; the tumour cell lines carry their own ROR1; also called Ba/F3-ROR1 cells; Jeko-1
- T1 sequence (Q01973 30-937): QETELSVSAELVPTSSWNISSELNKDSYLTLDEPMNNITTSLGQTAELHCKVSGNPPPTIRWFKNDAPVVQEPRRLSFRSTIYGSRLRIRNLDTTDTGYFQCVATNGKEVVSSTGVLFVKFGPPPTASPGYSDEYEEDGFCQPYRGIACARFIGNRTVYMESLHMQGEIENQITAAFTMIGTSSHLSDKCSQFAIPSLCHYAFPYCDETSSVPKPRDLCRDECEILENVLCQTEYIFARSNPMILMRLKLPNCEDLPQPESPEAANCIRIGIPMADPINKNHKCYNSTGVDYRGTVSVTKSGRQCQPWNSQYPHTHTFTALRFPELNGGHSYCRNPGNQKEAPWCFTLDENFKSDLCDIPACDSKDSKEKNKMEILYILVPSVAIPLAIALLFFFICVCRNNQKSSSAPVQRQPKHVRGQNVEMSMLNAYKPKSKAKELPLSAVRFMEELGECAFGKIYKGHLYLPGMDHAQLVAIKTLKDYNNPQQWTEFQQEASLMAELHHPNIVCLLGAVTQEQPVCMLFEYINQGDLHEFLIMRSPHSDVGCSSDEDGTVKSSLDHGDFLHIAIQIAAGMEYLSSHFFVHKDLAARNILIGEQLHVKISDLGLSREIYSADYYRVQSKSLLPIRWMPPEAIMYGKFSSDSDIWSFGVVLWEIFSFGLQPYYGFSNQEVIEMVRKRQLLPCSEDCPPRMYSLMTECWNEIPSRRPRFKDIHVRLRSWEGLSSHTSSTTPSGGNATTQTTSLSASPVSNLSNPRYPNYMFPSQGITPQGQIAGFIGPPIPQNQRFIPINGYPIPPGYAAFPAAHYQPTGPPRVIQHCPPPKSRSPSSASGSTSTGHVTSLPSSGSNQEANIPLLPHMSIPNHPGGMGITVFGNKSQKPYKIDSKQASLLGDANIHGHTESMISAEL
- ASSAY_NOTES: flow cytometry, A549 cells
The reply should contain only the number, in nM.

The cases that follow already have their EC50 on record.
| BINDER | EC50 / nM |
| --- | --- |
| 38F8-Hu37 (antibody, human IgG1, kappa, V domains shown, humanized, human IgG1 / kappa) VH: QVQLVESGGGLVKPGGSLRLSCAASGFTFSNYAMSWVRQAPGKGLEWVASISSGGPTYYADSVKGRFTISRDNAKNSLYLQMNSLRAEDTAVYYCARGYRYDVNWYFDVWGAGTMVTVSS VL: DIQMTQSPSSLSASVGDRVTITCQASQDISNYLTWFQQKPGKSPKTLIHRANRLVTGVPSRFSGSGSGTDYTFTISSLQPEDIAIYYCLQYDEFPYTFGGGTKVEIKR | 0.31 |
| 19F6-Hu33 (antibody, human IgG1, kappa, V domains shown, humanized, human IgG1 / kappa) VH: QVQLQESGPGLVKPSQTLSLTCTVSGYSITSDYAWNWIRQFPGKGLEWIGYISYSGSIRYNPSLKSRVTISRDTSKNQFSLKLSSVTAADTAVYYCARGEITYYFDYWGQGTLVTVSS VL: DIQMTQSPSSLSASVGDRVTITCRASTDIDDDMNWYQQKPGKAPKLLIYEGNTLQSGVPSRFSGSGYGTDFTLTISSLQPEDFATYYCLQSNDLPLTFGQGTKLEIKR | 0.25 |

Now take the following binder into account.
Per the record, 19F6-Hu12 (antibody, human IgG1, kappa, V domains shown, humanized, human IgG1 / kappa) VH: QVQLQESGPGLVKPSETLSLTCTVTGYSITSDYAWNWIRQPPGKGLEWMGYISYSGSIRYKPSLKDRITISRDTSKNQFSLKLSSVTAADTAVYYCARGEITYYFDYWGQGTLVTVSS VL: DIQMTQSPSSLSASVGDRVTITCITTTDIDDDMNWYQQKPGKAPKLLISEGNTLQSGVPSRFSGSGYGTDFTLTISSLQPEDFATYYCLQSNDLPLTFGQGTKLEIKR has EC50 of 0.16
